# system_name: ACAT 1 (Acyl CoA-Cholesterol Acyltransferase 1) (Homo sapiens, UniProt P35610)
# Construct: Cells were collected, homogenized and microsomal membranes prepared; endogenous in cells; microsomal membranes
# Sequence (P35610 1-550): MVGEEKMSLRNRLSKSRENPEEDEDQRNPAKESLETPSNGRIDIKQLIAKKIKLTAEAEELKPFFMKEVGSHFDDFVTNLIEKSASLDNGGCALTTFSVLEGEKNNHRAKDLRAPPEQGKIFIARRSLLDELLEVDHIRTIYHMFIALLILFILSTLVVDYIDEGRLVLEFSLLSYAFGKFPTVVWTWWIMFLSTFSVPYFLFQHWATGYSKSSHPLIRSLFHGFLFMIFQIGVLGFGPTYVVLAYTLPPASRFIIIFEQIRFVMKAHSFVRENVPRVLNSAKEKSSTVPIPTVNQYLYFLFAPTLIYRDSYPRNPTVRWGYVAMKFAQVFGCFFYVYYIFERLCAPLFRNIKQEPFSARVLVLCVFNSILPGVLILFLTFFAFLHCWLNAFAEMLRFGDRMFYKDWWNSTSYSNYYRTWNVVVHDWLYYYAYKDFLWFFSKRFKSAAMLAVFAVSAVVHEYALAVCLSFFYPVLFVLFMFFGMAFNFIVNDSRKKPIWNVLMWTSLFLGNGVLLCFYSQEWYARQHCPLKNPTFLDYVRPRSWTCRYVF
# assay_text: In-vitro determination of inhibition of ACAT 1 (microsomal membranes of U937 cells differentiated to macrophages, [14C]-Palmitoyl CoA)
# applied_conditions: U937 macrophage microsomes
reported_metric: IC50 (µM)

>  <compound>
CC1C(c2ccccc2)C(C(=O)O)=NN1c1ccc(Cl)cc1Cl (stereo not drawn)

>  <reported_metric>
IC50

>  <unit_name>
µM

>  <readout_number>
4.84

$$$$
>  <compound>
C[C@@H]1[C@@H](c2ccccc2)C(C(=O)NN2CCCCC2)=NN1c1ccc(Cl)cc1Cl (racemic)

>  <reported_metric>
IC50

>  <unit_name>
µM

>  <readout_number>
9.66

$$$$
>  <compound>
CC[C@H](C)C(=O)O[C@H]1C[C@@H](C)C=C2C=C[C@H](C)[C@H](CC[C@@H]3C[C@@H](O)CC(=O)O3)[C@H]21 [Lovastatin, reference compound]

>  <reported_metric>
IC50

>  <unit_name>
µM

>  <readout_number>
9.6

$$$$

###

# system_name: ACAT 2 (Acyl CoA-Cholesterol Acyltransferase 2) (Rattus norvegicus, UniProt Q7TQM4)
# Construct: Briefly hepatic microsomes were prepared from the Wistar rats; from tissue; host or cells: liver (hepatic microsomes) of Wistar rats
# Sequence (Q7TQM4 whole entry): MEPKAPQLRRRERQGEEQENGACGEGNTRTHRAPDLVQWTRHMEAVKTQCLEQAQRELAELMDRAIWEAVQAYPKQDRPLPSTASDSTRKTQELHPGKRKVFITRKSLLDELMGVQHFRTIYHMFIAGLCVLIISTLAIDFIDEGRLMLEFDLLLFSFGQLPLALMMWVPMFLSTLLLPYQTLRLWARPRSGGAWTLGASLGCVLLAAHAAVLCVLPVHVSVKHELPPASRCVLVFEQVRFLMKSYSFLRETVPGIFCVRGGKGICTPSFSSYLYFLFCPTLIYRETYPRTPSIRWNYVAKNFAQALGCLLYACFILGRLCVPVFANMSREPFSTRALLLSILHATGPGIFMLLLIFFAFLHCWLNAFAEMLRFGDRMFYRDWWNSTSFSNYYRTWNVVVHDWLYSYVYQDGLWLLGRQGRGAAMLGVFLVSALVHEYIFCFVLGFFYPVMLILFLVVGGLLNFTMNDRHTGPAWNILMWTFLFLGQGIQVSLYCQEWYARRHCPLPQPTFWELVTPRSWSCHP
# assay_text: In-vitro determination of inhibition of ACAT 2 (hepatic microsomes, [14C]-Palmitoyl CoA)
# Type: biochemical, Wistar rats
# applied_conditions: second ACAT 2 table; value marked * estimated from 2 different experiments
The entries below come with measured IC50 values attached.

>  <molecule>
CC[C@H](C)C(=O)O[C@H]1C[C@@H](C)C=C2C=C[C@H](C)[C@H](CC[C@@H]3C[C@@H](O)CC(=O)O3)[C@H]21 [Lovastatin, reference compound]

>  <relation_sign>
=

>  <IC50, µM>
12.5

$$$$
>  <molecule>
CC1C(c2ccccc2)C(C(=O)O)=NN1c1ccc(Cl)cc1Cl (stereo not drawn) [Example 3]

>  <relation_sign>
=

>  <IC50, µM>
2

$$$$
>  <molecule>
C[C@@H]1[C@@H](c2ccccc2)C(C(=O)NN2CCCCC2)=NN1c1ccc(Cl)cc1Cl (racemic) [Example 1]

>  <relation_sign>
<

>  <IC50, µM>
3

$$$$
